Known refractive index of a selection of compounds
- assay_method_text: refractive index (Na D-line) (dimensionless)
- condition_label: 298.15 K; 101.33 kPa; Liquid; Standard Abbe refractometry
// print number alone

Recorded results for 3 compounds are shown here.
smiles_data: CCCCCC
refractive index: 1.3724

smiles_data: Cc1ccccc1
refractive index: 1.4939

smiles_data: C=CCCCC
refractive index: 1.3851

Okay, next one:
Prompt: # lookup: refractive index of `c1ccsc1`
Completion: 1.5255
